# Measurement Target: Dipeptidyl peptidase 2 (Homo sapiens, UniProt Q9UHL4)
# Method Summary: Inhibition of DPP2 in human seminal plasma using Lys-Ala-p-nitroanilide as substrate incubated for 15 mins prior to substrate addition
Assign IC50 to each entry below.

Examples with their reported IC50 follow.
Return IC50 (reported value) for this compound: N#C[C@@H]1CCCN1C(=O)CNC(=O)c1ccnc2cc(Cl)ccc12
> 100 µM

Complete the entry with IC50 for N#C[C@@H]1CCCN1C(=O)CNC(=O)c1c(O)cnc2ccccc12
> 100 µM

Report IC50, nothing else, for this compound: N#C[C@@H]1CCCN1C(=O)CNC(=O)c1ccnc2ccc(Cl)cc12
> 100 µM

Batch lookup, IC50 per entry.
1. COc1ccc(-c2cc(C(=O)NCC(=O)N3CCC[C@H]3C#N)c3ccccc3n2)cc1
2. N#C[C@@H]1CCCN1C(=O)CNC(=O)c1cccc2cccnc12
3. Cc1cc(C(=O)NCC(=O)N2CCC[C@H]2C#N)c2ccccc2n1
4. N#C[C@@H]1CCCN1C(=O)CNC(=O)c1cccc2ccncc12

1: > 100 µM; 2: > 100 µM; 3: > 100 µM; 4: > 100 µM

Batch of 7 compounds: report IC50 for each.
1. Cc1nc2ccccc2c(C(=O)NCC(=O)N2CCC[C@H]2C#N)c1O
2. N#C[C@@H]1CCCN1C(=O)CN1Cc2ccccc2C1=O
3. N#C[C@@H]1CCCN1C(=O)CNC(=O)c1cc2ccccc2[nH]1
4. N#C[C@@H]1CCCN1C(=O)CNC(=O)c1ccnc2c(Cl)cccc12
5. N#C[C@@H]1CCCN1C(=O)CNC(=O)COc1cccc2ccccc12
6. N#C[C@@H]1CCCN1C(=O)CNC(=O)c1ccnc2ccc(F)cc12
7. N#C[C@@H]1CCCN1C(=O)CNC(=O)c1ccnc2cc(Br)ccc12

1: > 100 µM; 2: > 10 µM; 3: > 100 µM; 4: > 100 µM; 5: > 100 µM; 6: > 100 µM; 7: > 100 µM

Record IC50 per entry; entries follow.
1. N#C[C@@H]1CCCN1C(=O)CNC(=O)c1ccnc2cccc(Cl)c12
2. N#C[C@@H]1CCCN1C(=O)CNC(=O)COc1ccc2ccccc2c1
3. N#C[C@@H]1CCCN1C(=O)CNC(=O)C12CC3CC(CC(O)(C3)C1)C2

1: > 100 µM; 2: > 100 µM; 3: > 10 µM

# batch: return IC50 for each of the 6 compounds below
1. N#C[C@@H]1CCCN1C(=O)CNC(=O)Cc1cccc2ccccc12
2. N#C[C@@H]1CCCN1C(=O)COc1cccc2ccccc12
3. N#C[C@@H]1CCCN1C(=O)CNC(=O)c1cccc2ncccc12
4. N#C[C@@H]1CCCN1C(=O)CNC(=O)c1ccnc2ccc(OC(F)(F)F)cc12
5. N#C[C@@H]1CCCN1C(=O)CNC(=O)c1cc(O)nc2ccccc12
6. N#C[C@@H]1CCCN1C(=O)CNS(=O)(=O)c1cccc2ccccc12

1. > 100 µM
2. > 100 µM
3. > 100 µM
4. > 100 µM
5. > 100 µM
6. > 100 µM

Where do the numbers come from? From ChEMBL document CHEMBL2385017.
